# Lookup of reported composite z-score keyed by entry
# Tested on: Neuregulin-1 EGF-like domain
# Procedure Summary: binders of neuregulin-1 EGF-like domain, primary screen, biochemical, small-molecule microarray, 635 nm fluorescence (AID 1081);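 further: binding of the protein to compounds printed on small-molecule microarray slides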
# Conditions: small-molecule microarray binding, higher = more signal
Write the number on its own, no unit after it.

Worked cases, answers included:
C=CCNC(=O)[C@H]1[C@@H]2C(=O)O[C@@H](c3ccccc3)[C@@H](c3ccccc3)N2[C@@H](c2ccc(O)cc2)[C@]12C(=O)N(C(=O)OCCOC)c1ccc(C#Cc3ccc(OC)cc3)cc12    0.995
COc1ccc(C(O)C2C=CC3C(=O)N(C)C(=O)C3N2Nc2ccccc2)cc1 (stereo not given)    1.27
CC(C)[Si](C#Cc1ccccc1)(O[C@H](c1ccccc1)c1cn(Cc2ccccc2)nn1)C(C)C    1.28

Request: Specify composite z-score for C=C[C@@H](CO)NS(=O)(=O)c1ccc(Br)cc1 and stop.
Response: -0.14

Request: Specify composite z-score for C[N+](C)(C)CCCC[C@@H]1NC(=O)[C@H]2C[C@@H](C(=O)O)[C@@H](c3ccc(O)cc3)N2C1=O and stop.
Response: 1.3

Request: Specify composite z-score for C=CC[C@@]1(C(=O)NCCCOC)N=C(c2ccc(OCCCO)cc2)O[C@@H]1c1ccccc1CN=[N+]=[N-] and stop.
Response: 1.03

Request: Specify composite z-score for COc1ccc([Si](C)(C)[C@H]2[C@H](CC(=O)N3CCC[C@H]3CO)O[C@@]3(C(=O)N(C)c4ccccc43)[C@@H]2C)cc1 and stop.
Response: 1.4

Request: Specify composite z-score for CO[C@H]1O[C@H](CO)[C@@H](OC(=O)Nc2cccc(F)c2)[C@H](OC(=O)c2cc3ccccc3[nH]2)[C@H]1OC(=O)c1cc2ccccc2[nH]1 and stop.
Response: 0.24

Request: Specify composite z-score for OCCCc1cc[n+](Cc2cc3c(cc2Br)OCO3)cc1 and stop.
Response: 0.583

Request: Specify composite z-score for COC(=O)[C@@]1(Cc2ccc(F)cc2)[C@H]2c3cc(C(=O)N(C)C)n(Cc4cccc5ccccc45)c3C[C@H]2CN1C(=O)c1ccccc1 and stop.
Response: 1.33

Request: Specify composite z-score for COCCOC(=O)N1C(=O)[C@@]2(c3cc(C#CCC(C(=O)OC)C(=O)OC)ccc31)[C@H](C(=O)N1CCc3cc(OC)c(OC)cc3C1)[C@H]1C(=O)O[C@H](c3ccccc3)[C@H](c3ccccc3)N1[C@@H]2c1ccccc1OCCO and stop.
Response: 1.22

----------
# Procedure Summary: E. coli acrAB mutant growth effects, primary screen, E. coli filamentation inducers, strain DRC39, OD650, 24 h (AID 1178);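 further: growth measured as culture turbidity by optical density at 650 nm; test concentration not given here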
# Conditions: higher = more signal, called active from +8 up or from −8 down
Active and inactive are the calls of the source.
Recorded Endpoint: z-score

Worked cases, answers included:
COc1ccc(CCNC(=O)[C@@]2(C)c3ccccc3C(=O)N(Cc3ccc(OC(F)(F)F)cc3)[C@H]2c2ccc(CO)cc2)cc1    0.0466 (inactive)
O=C(c1ccccc1)N1Cc2ccccc2C[C@@]2(N=C(c3ccc(OCCCO)cc3)O[C@H]2c2ccccc2)C1=O    0.0557 (inactive)

Request: Specify z-score for C=CCC(OC(C)=O)[C@@H]1[C@@H](N(Cc2ccc(-c3ccccc3)cc2)C(=O)Cc2ccc(OC)cc2)c2cc(OCCCO)ccc2N1C(=O)Cc1ccc(OC)cc1 (some centres not stated) and stop.
Response: -0.105 (inactive)

Request: Specify z-score for CCCC1(C(=O)OC)C=C2C(=C(C(C)C)C(=O)C2C)CN1 (configuration not stated) and stop.
Response: -0.314 (inactive)

Request: Specify z-score for C=CCNC(=O)[C@@H]1[C@H]2C(=O)O[C@H](c3ccccc3)[C@H](c3ccccc3)N2[C@H](c2ccc(OCCO)cc2)[C@@]12C(=O)Nc1ccc(C#CC3=CCCCC3)cc12 and stop.
Response: -0.972 (inactive)

Request: Specify z-score for O=C1NC(=O)C2C1C=CC(C(O)C(c1ccccc1)c1ccccc1)N2Nc1ccccn1 (configuration not stated) and stop.
Response: -0.156 (inactive)

Request: Specify z-score for C[N+](C)(C)CCCC[C@@H]1NC(=O)[C@H]2C[C@@H](C(=O)NCCCCCN)[C@@H](c3ccc(O)cc3)N2C1=O and stop.
Response: 0.553 (inactive)

----------
# Procedure Summary: COS7 lysate on small-molecule microarray, probe aHis, 635 nm (AID 1123);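 further: z-score combines 667nm fluorescence intensity with signal-to-noise per printed compound spot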
# Conditions: COS7 cell lysate, fluorescence, higher = more signal
# Lookup of reported composite z-score keyed by entry
Write the number on its own, no unit after it.

CCOC(=O)C1=CCC(c2cccn2C(=O)OC(C)(C)C)N(S(=O)(=O)c2ccc(C)cc2)C1 (centres undefined)    2.82
[N-]=[N+]=NCc1ccccc1[C@H]1OC(c2ccc(OCCCO)cc2)=N[C@@]1(Cc1ccccc1N=[N+]=[N-])C(=O)N1CCOCC1    2.57
CC[C@@H](O[Si](C#C[Si](C(C)C)(C(C)C)C(C)C)(C(C)C)C(C)C)c1cn([C@H](C)c2ccccc2)nn1    0.365
O=C(O)C1=CC[C@H]2C(=O)N(c3ccccc3)C(=O)[C@@H]12    1.33

Request: Specify composite z-score for Cc1ccc(S[C@]2(C(=O)NCC(C)C)CC(=O)N(C(C)C)[C@@H]2c2ccc(CO)cc2I)cc1 and stop.
Response: 1.07

----------
# Lookup of reported z-score keyed by entry
# Procedure Summary: modulators of HCV replicon luciferase signal, primary screen, HCV replication inhibitor project, Huh7 cells, luciferase reporter (AID 1109);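 further: huh7 hepatoma cells harbouring a luciferase neomycin HCV replicon reporter; luciferase luminescence as measure of HCV replicon replication; test concentration not given here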
# Conditions: 48 h, higher = more signal
Write the number on its own, no unit after it.

Worked cases, answers included:
O=C1c2ccccc2[C@](Cc2ccccc2I)(C(=O)NCCN2CCOCC2)[C@H](c2ccc(CO)cc2)N1Cc1ccccc1C(F)(F)F    -2.44
CC(C)(C)OC(=O)CC[C@]1(C(=O)N2CCOCC2)COC(c2ccc(OCCCO)cc2)=N1    0.266
C=C[C@@H](CO)NS(=O)(=O)c1ccc(Br)cc1    0.0931

Please find the next molecule below.
Request: Specify z-score for CO[C@H]1O[C@H](CO)[C@@H](OC(=O)Nc2ccccc2)[C@@H]2OC(=O)[C@@H](Cc3ccccc3)C/C=C/C[C@H](Cc3ccccc3)C(=O)O[C@@H]12 and stop.
Response: -0.897

----------
# Procedure Summary: small-molecule binders of probe aInhba, primary screen, biochemical, small-molecule microarray, 635/667 nm fluorescence (AID 1148);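 further: score merges 667nm spot fluorescence with signal-to-noise for antibody binding to printed compounds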
# Conditions: higher = more signal
Dear colleague, classification is by composite z-score, with ranges listed here: lo = under -0.1, med = from -0.1 up to 0.05, hi = 0.05 and over

Solved cases (5 shown):
C[C@]1(C(=O)O)c2ccccc2C(=O)N(Cc2cc(C(F)(F)F)cc(C(F)(F)F)c2)[C@H]1c1ccc(CO)cc1    med
O=C(NCCN1CCOCC1)[C@@H]1c2ccccc2C(=O)N(CC23CC4CC(CC(C4)C2)C3)[C@H]1c1ccc(CO)cc1    hi
CN1C2C=C(c3ccc(CO)cc3)C(C3C(=O)N(C(N)=O)C(=O)C32)C1C1CC1 (stereo not given)    lo
COCCCNC(=O)[C@@]1(c2ccc([N+](=O)[O-])cc2)CC(=O)N(C2CCCCC2)[C@@H]1c1ccc(CO)cc1I    hi
COc1cccc(C)c1NC(=O)O[C@H]1[C@H](OC(=O)Nc2ccccc2)[C@@H](OC(=O)Nc2ccccc2)[C@@H](OC)O[C@@H]1CO    med

Request: For the record Cc1ccc(S[C@]2(C(=O)NCC(C)C)CC(=O)N(C(C)C)[C@@H]2c2ccc(CO)cc2I)cc1 , report the class its composite z-score corresponds to.
Response: lo

Request: For the record COC(=O)[C@@]1(Cc2ccccc2)[C@H]2c3cc(C(=O)N(C)C)n(Cc4ccc(Cl)c(C(F)(F)F)c4)c3C[C@H]2CN1C(=O)c1ccccc1 , report the class its composite z-score corresponds to.
Response: hi

Request: For the record CC1(C)OB(/C=C\CC(OC(=O)c2ccncc2)c2ccccc2)OC1(C)C (stereo not given) , report the class its composite z-score corresponds to.
Response: lo

Request: For the record CCCCC(=C=CC[C@H](O)c1cccc(OCCO)c1)C[C@H](O)c1cc(Cl)cc(Cl)c1O , report the class its composite z-score corresponds to.
Response: med

Request: For the record O=C1c2ccccc2[C@@]2(Cc3ccccc3N(CC(F)(F)F)C2=O)[C@H](c2ccc(CO)cc2)N1Cc1ccccc1 , report the class its composite z-score corresponds to.
Response: lo

Request: For the record CN1C(=O)C2C=CC(C(O)c3ccc([N+](=O)[O-])cc3)N(Nc3ccccc3)C2C1=O (stereo not given) , report the class its composite z-score corresponds to.
Response: hi

Request: For the record COC(=O)C(CC#Cc1ccc2c(c1)[C@]1(C(=O)N2)[C@H](c2ccccc2OCCO)N2[C@H](c3ccccc3)[C@H](c3ccccc3)OC(=O)[C@H]2[C@@H]1C(=O)N1CCN(c2ncccn2)CC1)C(=O)OC , report the class its composite z-score corresponds to.
Response: med

Request: For the record C=C(CCCC)C(=O)CC[C@@H](OC(C)=O)c1ccc(OCCO)cc1 , report the class its composite z-score corresponds to.
Response: med

Request: For the record C=C1C(=O)C=C2CN(C(=O)c3ccccc3)[C@@](Cc3ccc(F)cc3)(C(=O)OC)[C@@H]12 , report the class its composite z-score corresponds to.
Response: hi
